Sourced from paper PMC12709234

Below is a list of entries, each paired with its recorded Papp at 60 min, 10 µM value.
Tested on: P-glycoprotein (human MDR1)
Experiment: Permeability on MDCKII-hMDR1 cell monolayers
Format: in vitro ADME, canine
Conditions: dog, MDCK-MDR1, pH 7.4

Look up Papp at 60 min, 10 µM: c1ccc(-c2cc(CNc3cccc4cccnc34)on2)nc1
> 10 ×10⁻⁶ cm/s

What about this compound? N/C(=N\O)c1ccc(-c2cc(CNc3cccc4cccnc34)on2)cc1
> 10 ×10⁻⁶ cm/s

* * *

Tested on: P-glycoprotein (human MDR1)
Assay: Permeability on MDCKII-hMDR1 cell monolayers
Format: in vitro ADME, canine
Conditions: dog, MDCK-MDR1, pH 7.4
value_type: Papp A→B at 60 min, 10 µM (×10⁻⁶ cm/s)

N/C(=N\O)c1ccc(-c2cc(CNc3cccc4cccnc34)on2)cc1 15

a. c1ccc(-c2cc(CNc3cccc4cccnc34)on2)nc1
b. N#Cc1ccc(-c2cc(CNc3cccc4cccnc34)on2)cc1
c. c1ccc(-c2cc(CNc3cccc4cccnc34)on2)cc1
d. FC(F)(F)c1cc(OCc2cc(-c3ccccn3)no2)c2ccccc2n1
# desc sort on Papp A→B at 60 min, 10 µM across 4 molecules Answer with the labels in sequence, matching the requested order.
a, d, b, c
(a: 17.2 ×10⁻⁶ cm/s, d: 6.5 ×10⁻⁶ cm/s, b: 3.6 ×10⁻⁶ cm/s, c: 1.7 ×10⁻⁶ cm/s)

* * *

Tested on: P-glycoprotein (human MDR1)
Test: Permeability on MDCKII-hMDR1 cell monolayers
Assay type: in vitro ADME, canine
Settings: dog, MDCK-MDR1, pH 7.4
Catalogue of compounds with associated Papp A→B at 60 min, 10 µM

compound	Papp A→B at 60 min, 10 µM
FC(F)(F)c1ccc(-c2cc(CNc3cccc4cccnc34)on2)cc1 [Compound 8c]	< 0.1 ×10⁻⁶ cm/s
Clc1ccc(-c2cc(CNc3cccc4cccnc34)on2)c(Cl)c1 [Compound 8d]	< 0.1 ×10⁻⁶ cm/s

Read the next record carefully.
Name the reported Papp A→B at 60 min, 10 µM value associated with the compound FC(F)(F)c1cc(OCc2cc(-c3ccccc3)no2)c2ccccc2n1 [Compound 7a]
< 0.1 ×10⁻⁶ cm/s
